Target: human CLDN6 fused to GFP, expressed on engineered HEK293T cells (human) (UniProt P56747)
Test: FACS, 293T clone with human CLDN6, 1.5 ug Ab
Catalogue of FACS signal readings, one per entry.
Answer as a number with no unit attached.

Look over these answered cases.
AB1-7 (antibody, V domains shown) VH: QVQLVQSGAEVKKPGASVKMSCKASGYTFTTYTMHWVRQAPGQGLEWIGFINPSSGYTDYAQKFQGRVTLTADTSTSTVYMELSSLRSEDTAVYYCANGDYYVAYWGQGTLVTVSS VL: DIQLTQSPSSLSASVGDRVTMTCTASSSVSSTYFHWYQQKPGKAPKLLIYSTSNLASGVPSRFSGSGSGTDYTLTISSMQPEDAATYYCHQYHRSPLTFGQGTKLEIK | 207000
AB4-6 (antibody, V domains shown) VH: QVQLVQSGAEVKKPGASVKMSCKASGYTFTSYTMHWIRQAPGQGLEWIGYINPSSTYTHYAQKFQGRATLTADKSTSTAYMELSSLRSEDTAVYYCSRGELGGFAYWGQGTLVTVSS VL: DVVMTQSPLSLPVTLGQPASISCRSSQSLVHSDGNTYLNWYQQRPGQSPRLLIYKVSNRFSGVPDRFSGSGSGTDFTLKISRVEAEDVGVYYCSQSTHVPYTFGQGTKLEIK | 29200

Next, consider the following binder.
Param item = AB3-2 (antibody, V domains shown) VH: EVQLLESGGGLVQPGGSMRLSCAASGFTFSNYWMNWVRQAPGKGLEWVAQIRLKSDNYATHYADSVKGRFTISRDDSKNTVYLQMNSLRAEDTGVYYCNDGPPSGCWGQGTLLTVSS VL: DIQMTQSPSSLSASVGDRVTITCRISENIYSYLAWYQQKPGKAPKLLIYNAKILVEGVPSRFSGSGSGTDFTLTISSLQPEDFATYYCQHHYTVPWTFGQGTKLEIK ; retrieve measured FACS signal.
396000
